Every entry's value here was drawn from the supplement of paper PMC10724198.

- Test system: Saccharomyces cerevisiae
- test.description: protein stability index of tFT-peptide fusion (C-terminal peptide) (PSI (0-1 scale)); higher = more stable (slower turnover)
- particulars: genetic background: das1 deletion; temperature: 30 C
Hi there, I'd appreciate the recorded protein stability index for every entry that follows.
Answer field: number only, no words.

HSITEGSYIYIK [YOR062C C-terminal 12 aa] yielded protein stability index of 0.687

HSDSADTHTHKH [MMT2 C-terminal 12 aa] yielded protein stability index of 0.693

FMGGFLSKGNKR [ROG3 C-terminal 12 aa] yielded protein stability index of 0.706

LPPGLNSKKNIK [EAP1 C-terminal 12 aa] yielded protein stability index of 0.695

* * *

- System: Saccharomyces cerevisiae
- test.description: protein stability index of tFT-peptide fusion (C-terminal peptide) (PSI (0-1 scale)); higher = more stable (slower turnover)
- particulars: genetic background: wild type; temperature: 30 C
Label Met when protein stability index is at or above 0.3; anything below gets Not met.

Exam item: Is reported protein stability index greater than or equal to 0.3 here: `RVLSLLGCFVVF`
Marked response: Met

Exam item: Is reported protein stability index greater than or equal to 0.3 here: `VCLVLVVVWWSG`
Marked response: Not met

Exam item: Is reported protein stability index greater than or equal to 0.3 here: `LPWLLLISFSYR`
Marked response: Not met

Exam item: Is reported protein stability index greater than or equal to 0.3 here: `GVMICLDLLLSV`
Marked response: Met

Exam item: Is reported protein stability index greater than or equal to 0.3 here: `LPCPPSPASLPR`
Marked response: Met

Exam item: Is reported protein stability index greater than or equal to 0.3 here: `VSTVCLDFSPFL`
Marked response: Met

Exam item: Is reported protein stability index greater than or equal to 0.3 here: `CRLATILRITAL`
Marked response: Not met

Exam item: Is reported protein stability index greater than or equal to 0.3 here: `CVPAPCGRASCR`
Marked response: Met

Exam item: Is reported protein stability index greater than or equal to 0.3 here: `VFGSVAALRLLM`
Marked response: Not met

Exam item: Is reported protein stability index greater than or equal to 0.3 here: `LLLRWWLYSCCP`
Marked response: Met

Exam item: Is reported protein stability index greater than or equal to 0.3 here: `FYAAILCLLFSC`
Marked response: Not met

Exam item: Is reported protein stability index greater than or equal to 0.3 here: `MALAVRVVFCGA`
Marked response: Not met

Exam item: Is reported protein stability index greater than or equal to 0.3 here: `LPPFRFSLPFRR`
Marked response: Met

Exam item: Is reported protein stability index greater than or equal to 0.3 here: `LALTRAAITHFF`
Marked response: Not met

Exam item: Is reported protein stability index greater than or equal to 0.3 here: `LLCGVLFFFWVV`
Marked response: Met

Exam item: Is reported protein stability index greater than or equal to 0.3 here: `RLICFFSMYLRF`
Marked response: Met

Exam item: Is reported protein stability index greater than or equal to 0.3 here: `SFSIPILLLAFP`
Marked response: Met

Exam item: Is reported protein stability index greater than or equal to 0.3 here: `CLFFFFFHLPIF`
Marked response: Met

Exam item: Is reported protein stability index greater than or equal to 0.3 here: `VFLFSWYIFSVF`
Marked response: Not met

Exam item: Is reported protein stability index greater than or equal to 0.3 here: `LASLSRPFRAKF`
Marked response: Met

Exam item: Is reported protein stability index greater than or equal to 0.3 here: `DFWCIIVIFLFR`
Marked response: Not met

Exam item: Is reported protein stability index greater than or equal to 0.3 here: `VPRSLYSVLRLA`
Marked response: Not met

Exam item: Is reported protein stability index greater than or equal to 0.3 here: `CLGLFPSLLRLS`
Marked response: Not met

Exam item: Is reported protein stability index greater than or equal to 0.3 here: `RGVRALFLLLSF`
Marked response: Not met

Exam item: Is reported protein stability index greater than or equal to 0.3 here: `GSLVLSCLMSRA`
Marked response: Met

Exam item: Is reported protein stability index greater than or equal to 0.3 here: `FLLAIVRGVWLA`
Marked response: Not met

Exam item: Is reported protein stability index greater than or equal to 0.3 here: `VLLVRIFLCWVC`
Marked response: Not met

Exam item: Is reported protein stability index greater than or equal to 0.3 here: `VLVVLRSEVSLS`
Marked response: Not met

Exam item: Is reported protein stability index greater than or equal to 0.3 here: `WFIPRSVCRWLF`
Marked response: Not met

Exam item: Is reported protein stability index greater than or equal to 0.3 here: `FPPRLIPLLARS`
Marked response: Not met

Exam item: Is reported protein stability index greater than or equal to 0.3 here: `WLFRCFLFVVGG`
Marked response: Met

Exam item: Is reported protein stability index greater than or equal to 0.3 here: `GEVLWAVLLVSC`
Marked response: Not met
